Target: acetylcholinesterase (Electrophorus electricus (Electric eel) (Gymnotus electricus), UniProt O42275)
Sequence (O42275 whole entry, looked up): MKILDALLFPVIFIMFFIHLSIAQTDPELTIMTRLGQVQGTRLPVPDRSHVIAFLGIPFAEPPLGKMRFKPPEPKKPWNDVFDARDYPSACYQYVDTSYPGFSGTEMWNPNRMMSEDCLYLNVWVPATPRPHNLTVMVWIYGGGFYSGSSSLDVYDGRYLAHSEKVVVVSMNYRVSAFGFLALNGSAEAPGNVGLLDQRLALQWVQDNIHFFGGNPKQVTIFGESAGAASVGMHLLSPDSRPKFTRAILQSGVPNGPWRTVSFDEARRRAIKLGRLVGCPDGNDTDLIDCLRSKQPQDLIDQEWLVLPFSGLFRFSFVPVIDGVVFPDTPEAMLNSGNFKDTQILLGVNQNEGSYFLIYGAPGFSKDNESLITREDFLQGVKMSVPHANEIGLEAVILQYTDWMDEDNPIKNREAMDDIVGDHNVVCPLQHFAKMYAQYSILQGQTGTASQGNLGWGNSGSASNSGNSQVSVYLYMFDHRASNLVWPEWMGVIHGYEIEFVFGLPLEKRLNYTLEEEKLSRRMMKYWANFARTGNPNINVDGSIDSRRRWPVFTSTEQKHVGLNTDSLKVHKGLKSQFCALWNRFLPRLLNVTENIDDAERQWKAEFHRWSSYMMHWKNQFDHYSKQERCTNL
log10 of IC50 values for the compounds below.
measurement-kind: log10 of IC50 (log10 of the value in nM)

CCOC(=O)C1=C(C)Nc2nc3c(c(N)c2C1c1cccc(Cl)c1)CC(C)(C)CC3 (centres unmarked); 2.95
CC1=C(C(=O)OC(C)C)C(c2cccc(Cl)c2)c2c(nc3c(c2N)CC(C)(C)CC3)N1 (centres unmarked); 3.26
CC1=C(C(=O)OC(C)C)C(c2ccccc2F)c2c(nc3c(c2N)CC(C)(C)CC3)N1 (centres unmarked); 2.88
COC(=O)C1=C(C)Nc2nc3c(c(N)c2C1c1ccccc1)CC(C)(C)CC3 (centres unmarked); 3.14
C=CCOC(=O)C1=C(C)Nc2nc3c(c(N)c2C1c1cccc(F)c1)CC(C)(C)CC3 (centres unmarked); 3.25
COCCOC(=O)C1=C(C)Nc2nc3c(c(N)c2C1c1ccccc1Cl)CC(C)(C)CC3 (centres unmarked); 2.99
CC1=C(C(=O)OCCN(C)C)C(c2ccccc2)c2c(nc3c(c2N)CC(F)(F)CC3)N1 (centres unmarked); 1.65
C=CCOC(=O)C1=C(C)Nc2nc3c(c(N)c2C1c1cccc([N+](=O)[O-])c1)CC(C)(C)CC3 (centres unmarked); 2.89
